Listed binders paired with reported koff
Target: T1, cynomolgus monkey Trop-2-hFc (cynomolgus monkey, UniProt A0A2K5UE71 27-274)
T1 construct: also called cynoTrop-2; not shown: human Fc
T1 sequence: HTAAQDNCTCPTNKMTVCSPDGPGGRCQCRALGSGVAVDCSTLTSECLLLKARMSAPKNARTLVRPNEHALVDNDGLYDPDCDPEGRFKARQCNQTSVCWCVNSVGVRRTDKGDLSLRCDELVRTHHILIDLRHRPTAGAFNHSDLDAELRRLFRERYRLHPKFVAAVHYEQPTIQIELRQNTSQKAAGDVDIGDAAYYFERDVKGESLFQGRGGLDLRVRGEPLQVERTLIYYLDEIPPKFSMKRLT
Assay: SPR (Biacore T200), cynomolgus Trop-2-hFc captured by anti-human Fc, Fab as analyte

# binder, koff, s⁻¹
records = [
    ("h7E6-WT recombinant Fab fragment (Fab, V domains shown, Recombinant Fab) VH: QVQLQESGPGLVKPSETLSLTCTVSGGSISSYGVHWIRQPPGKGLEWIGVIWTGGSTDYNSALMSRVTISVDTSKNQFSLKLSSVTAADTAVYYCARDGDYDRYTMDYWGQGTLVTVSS VL: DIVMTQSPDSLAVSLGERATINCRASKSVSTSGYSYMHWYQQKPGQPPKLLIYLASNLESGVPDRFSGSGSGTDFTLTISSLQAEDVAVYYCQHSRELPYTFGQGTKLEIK", 0.00635),
    ("h7E6_SVGL recombinant Fab fragment (Fab, V domains shown, Recombinant Fab) VH: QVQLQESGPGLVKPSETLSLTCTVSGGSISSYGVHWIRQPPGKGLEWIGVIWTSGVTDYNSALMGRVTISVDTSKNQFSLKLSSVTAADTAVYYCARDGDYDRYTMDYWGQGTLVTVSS VL: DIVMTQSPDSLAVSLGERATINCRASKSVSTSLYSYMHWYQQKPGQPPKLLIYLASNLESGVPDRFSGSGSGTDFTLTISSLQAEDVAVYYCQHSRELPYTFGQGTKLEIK", "7.42e-05"),
    ("h7E6_SVG Fab (Fab, V domains shown, also called DG (h7E6_SVG)) VH: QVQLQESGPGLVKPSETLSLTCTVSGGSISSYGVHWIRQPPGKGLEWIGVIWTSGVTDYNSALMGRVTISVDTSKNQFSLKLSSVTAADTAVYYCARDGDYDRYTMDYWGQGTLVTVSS VL: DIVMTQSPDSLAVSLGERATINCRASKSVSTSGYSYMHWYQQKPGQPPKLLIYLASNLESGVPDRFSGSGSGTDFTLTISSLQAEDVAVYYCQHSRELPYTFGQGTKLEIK", 0.00189),
    ("h7E6_L recombinant Fab fragment (Fab, V domains shown, Recombinant Fab) VH: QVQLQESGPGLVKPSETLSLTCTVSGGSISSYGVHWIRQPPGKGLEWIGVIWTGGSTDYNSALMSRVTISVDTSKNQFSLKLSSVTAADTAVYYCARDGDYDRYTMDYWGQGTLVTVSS VL: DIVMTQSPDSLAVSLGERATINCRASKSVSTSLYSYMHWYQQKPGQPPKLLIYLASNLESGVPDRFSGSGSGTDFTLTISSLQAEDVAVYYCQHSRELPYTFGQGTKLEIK", 0.000335),
]
